B1: TPR t1 (parent)
chain: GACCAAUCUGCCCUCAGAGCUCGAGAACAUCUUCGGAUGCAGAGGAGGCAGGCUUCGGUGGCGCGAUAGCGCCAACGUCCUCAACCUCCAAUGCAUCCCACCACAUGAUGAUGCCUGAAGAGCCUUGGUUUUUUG

Variants of: B1
MEASUREMENT_DESCRIPTION: polymerase ribozyme fitness, log enrichment relative to wild type (log ratio); higher = more active; in vitro selection for triplet polymerase activity
Classify by measured polymerase ribozyme fitness (log ratio): rule met if it is equal to or exceeds -3, rule not met if it is smaller.

Does G48C A95G U129C have a reported polymerase ribozyme fitness (log ratio) of at least -3?
rule met

Does C13U C15G A50G G61A have a reported polymerase ribozyme fitness (log ratio) of at least -3?
rule met

Does G39C U78A have a reported polymerase ribozyme fitness (log ratio) of at least -3?
rule met

Does C20A C76U C82G U96G have a reported polymerase ribozyme fitness (log ratio) of at least -3?
rule not met

Does U14G A50U C56U G93U U112A have a reported polymerase ribozyme fitness (log ratio) of at least -3?
rule not met

Does C49A A90C have a reported polymerase ribozyme fitness (log ratio) of at least -3?
rule met

Does C8G G23A G61U U109A U112A have a reported polymerase ribozyme fitness (log ratio) of at least -3?
rule not met

Does U32C U81G have a reported polymerase ribozyme fitness (log ratio) of at least -3?
rule not met

Does G128A U131A have a reported polymerase ribozyme fitness (log ratio) of at least -3?
rule met

Does C12U C89U A100C U133G have a reported polymerase ribozyme fitness (log ratio) of at least -3?
rule met

Does `C31U` have a reported polymerase ribozyme fitness (log ratio) of at least -3?
rule not met

Does C3U C12A A75U U87C C124U have a reported polymerase ribozyme fitness (log ratio) of at least -3?
rule met

Does U87G C102A C124G have a reported polymerase ribozyme fitness (log ratio) of at least -3?
rule met

Does C28A C72G C123U U125C have a reported polymerase ribozyme fitness (log ratio) of at least -3?
rule not met

Does C8A U9G A26G G44A G45U G63U C115A have a reported polymerase ribozyme fitness (log ratio) of at least -3?
rule not met

Does A16U U21C G60A G71U U112G G113A have a reported polymerase ribozyme fitness (log ratio) of at least -3?
rule not met

Does C8A U32A A90G have a reported polymerase ribozyme fitness (log ratio) of at least -3?
rule not met

Does C40U G48A C53A G113C have a reported polymerase ribozyme fitness (log ratio) of at least -3?
rule met

Does A46C A100U U131G have a reported polymerase ribozyme fitness (log ratio) of at least -3?
rule met

Does C13U C15U A37U A41U U59G have a reported polymerase ribozyme fitness (log ratio) of at least -3?
rule met

Does C3G C70G C80U G128C have a reported polymerase ribozyme fitness (log ratio) of at least -3?
rule met

Measured values drawn from the RNAGym collection of RNA variant scans (doi:10.1073/pnas.2313332121) for this set.
